Each recorded value in this set is attributed to patent US11242337B2.

# study system: NHE3 (Homo sapiens)
# Construct: expressed in transfected cells
# Sequence (P48764 26-834): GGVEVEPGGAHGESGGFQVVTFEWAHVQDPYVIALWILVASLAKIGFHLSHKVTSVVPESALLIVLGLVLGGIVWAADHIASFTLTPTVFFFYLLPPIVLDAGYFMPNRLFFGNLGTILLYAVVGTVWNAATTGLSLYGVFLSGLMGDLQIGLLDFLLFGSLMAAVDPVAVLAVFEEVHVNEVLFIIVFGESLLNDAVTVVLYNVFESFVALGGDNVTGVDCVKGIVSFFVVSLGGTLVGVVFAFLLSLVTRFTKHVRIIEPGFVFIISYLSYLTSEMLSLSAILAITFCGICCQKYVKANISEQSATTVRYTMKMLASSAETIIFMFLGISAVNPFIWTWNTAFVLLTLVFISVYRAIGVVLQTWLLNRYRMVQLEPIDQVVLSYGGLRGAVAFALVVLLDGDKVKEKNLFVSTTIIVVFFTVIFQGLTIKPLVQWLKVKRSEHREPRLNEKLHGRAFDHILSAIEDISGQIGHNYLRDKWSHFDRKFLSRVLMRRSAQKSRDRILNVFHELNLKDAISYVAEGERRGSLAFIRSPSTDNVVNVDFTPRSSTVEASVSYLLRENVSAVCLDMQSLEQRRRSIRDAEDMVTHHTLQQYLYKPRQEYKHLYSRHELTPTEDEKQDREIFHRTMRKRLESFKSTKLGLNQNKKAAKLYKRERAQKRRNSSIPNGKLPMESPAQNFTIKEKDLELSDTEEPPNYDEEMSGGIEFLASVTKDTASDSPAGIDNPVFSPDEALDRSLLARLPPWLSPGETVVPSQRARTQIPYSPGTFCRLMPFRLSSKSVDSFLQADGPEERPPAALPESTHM
# Sequence (Q99653 2-195 partner limits assumed): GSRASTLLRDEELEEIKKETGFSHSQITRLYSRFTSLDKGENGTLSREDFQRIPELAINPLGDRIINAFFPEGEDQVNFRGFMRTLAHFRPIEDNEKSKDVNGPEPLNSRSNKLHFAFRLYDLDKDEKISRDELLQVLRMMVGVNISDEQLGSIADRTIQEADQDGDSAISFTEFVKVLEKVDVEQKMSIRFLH
# assay overview: Cell-based assay of NHE-3 activity (persistent inhibition), human
# condition set: human Persistence, 60 min incubation then washout
Where a name gives a salt, the structure may show the parent alone.
measurement kind: % inhibition

{"columns": ["molecule", "observed result"],
 "data": [
  ["CN(C)[C@H]1Cc2c(C#N)cc(Cl)cc2[C@@H]1Oc1ccc(S(=O)(=O)NCCOCCOCCNC(=O)NCCCCNC(=O)NCCOCCOCCNS(=O)(=O)c2ccc(O[C@H]3c4cc(Cl)cc(C#N)c4C[C@@H]3N(C)C)c(F)c2)cc1F", "B (40-70%)"],
  ["N[C@@H]1CCCN([C@H]2Cc3c(Cl)cc(Cl)cc3[C@@H]2Oc2ccc(S(=O)(=O)NCCCCn3cc(CNC(=O)NCCCCNC(=O)NCc4cn(CCCCNS(=O)(=O)c5ccc(O[C@H]6c7cc(Cl)cc(Cl)c7C[C@@H]6N6CCC[C@@H](N)C6)cc5)nn4)nn3)cc2)C1", "C (>70%)"],
  ["Cc1cc(S(=O)(=O)N[C@@H]2CCN(CCOCCNC(=O)NCCCCNC(=O)NCCOCCN3CC[C@@H](NS(=O)(=O)c4ccc(O[C@H]5c6cc(Cl)cc(C#N)c6C[C@@H]5N(C)C)c(C)c4)C3)C2)ccc1O[C@H]1c2cc(Cl)cc(C#N)c2C[C@@H]1N(C)C", "C (>70%)"],
  ["Cc1cc(Cl)cc2c1C[C@H](N1CCNCC1)[C@H]2Oc1ccc(S(=O)(=O)NCCOCCOCCNC(=O)NCCCCNC(=O)NCCOCCOCCNS(=O)(=O)c2ccc(O[C@H]3c4cc(Cl)cc(C)c4C[C@@H]3N3CCNCC3)cc2)cc1", "C (>70%)"],
  ["Cc1cc(S(=O)(=O)NCCOCCOCCNC(=O)NCCCCNC(=O)NCCOCCOCCNS(=O)(=O)c2ccc(O[C@H]3c4cc(Cl)cc(F)c4C[C@@H]3N(C)C)c(C)c2)ccc1O[C@H]1c2cc(Cl)cc(F)c2C[C@@H]1N(C)C", "B (40-70%)"],
  ["CN(C)[C@H]1Cc2c(Cl)cc(Cl)cc2[C@@H]1Oc1ccc(S(=O)(=O)NCCOCCOCCNC(=O)NCCCCNC(=O)NCCOCCOCCNS(=O)(=O)c2ccc(O[C@H]3c4cc(Cl)cc(Cl)c4C[C@@H]3N(C)C)c(F)c2)cc1F", "C (>70%)"],
  ["N#Cc1cc(Cl)cc2c1C[C@H](N1CCC[C@@H](N)C1)[C@H]2Oc1ccc(S(=O)(=O)NCCOCCOCCNC(=O)NCCCCNC(=O)NCCOCCOCCNS(=O)(=O)c2ccc(O[C@H]3c4cc(Cl)cc(C#N)c4C[C@@H]3N3CCC[C@@H](N)C3)cc2)cc1", "B (40-70%)"],
  ["CC(C)[C@@H](COCCOCCNC(=O)NCCCCNC(=O)NCCOCCOC[C@@H](NS(=O)(=O)c1ccc(O[C@H]2c3cc(Cl)cc(Cl)c3C[C@@H]2N2CCC[C@@H](N)C2)cc1)C(C)C)NS(=O)(=O)c1ccc(O[C@H]2c3cc(Cl)cc(Cl)c3C[C@@H]2N2CCC[C@@H](N)C2)cc1 [Example 98, dihydrochloride]", "C (>70%)"],
  ["Cc1cc(S(=O)(=O)N[C@H]2CCN(CCOCCNC(=O)NCCCCNC(=O)NCCOCCN3CC[C@H](NS(=O)(=O)c4ccc(O[C@H]5c6cc(Cl)cc(C#N)c6C[C@@H]5N(C)C)c(C)c4)C3=O)C2=O)ccc1O[C@H]1c2cc(Cl)cc(C#N)c2C[C@@H]1N(C)C", "C (>70%)"],
  ["N#Cc1cc(Cl)cc2c1C[C@H](N1C[C@@H]3C[C@H]1CN3)[C@H]2Oc1ccc(S(=O)(=O)N[C@H]2CCN(CCOCCNC(=O)NCCCCNC(=O)NCCOCCN3CC[C@H](NS(=O)(=O)c4ccc(O[C@H]5c6cc(Cl)cc(C#N)c6C[C@@H]5N5C[C@@H]6C[C@H]5CN6)cc4)C3)C2)cc1", "C (>70%)"],
  ["Cc1cc(S(=O)(=O)NCCOCCOCCNC(=O)NCCCCNC(=O)NCCOCCOCCNS(=O)(=O)c2cc(C)c(O[C@H]3c4cc(Cl)cc(Cl)c4C[C@@H]3N(C)C)c(F)c2)cc(F)c1O[C@H]1c2cc(Cl)cc(Cl)c2C[C@@H]1N(C)C", "C (>70%)"],
  ["C[C@@H]1CCCCN1[C@H]1Cc2c(Cl)cc(Cl)cc2[C@@H]1Oc1ccc(S(=O)(=O)NCCOCCOCCNC(=O)NCCCCNC(=O)NCCOCCOCCNS(=O)(=O)c2ccc(O[C@H]3c4cc(Cl)cc(Cl)c4C[C@@H]3N3CCCC[C@H]3C)cc2)cc1", "A (NHE3 < 40%)"],
  ["N#Cc1cc(Cl)cc2c1C[C@H](N1CCNCC1)[C@H]2Oc1ccc(S(=O)(=O)N[C@H]2CCN(C(=O)CCCNC(=O)NCCCCNC(=O)NCCCC(=O)N3CC[C@H](NS(=O)(=O)c4ccc(O[C@H]5c6cc(Cl)cc(C#N)c6C[C@@H]5N5CCNCC5)cc4)C3)C2)cc1", "C (>70%)"],
  ["C[C@H]1CCCCN1[C@H]1Cc2c(Cl)cc(Cl)cc2[C@@H]1Oc1ccc(S(=O)(=O)NCCOCCOCCNC(=O)NCCCCNC(=O)NCCOCCOCCNS(=O)(=O)c2ccc(O[C@H]3c4cc(Cl)cc(Cl)c4C[C@@H]3N3CCCC[C@@H]3C)cc2)cc1", "B (40-70%)"],
  ["Cc1cc(S(=O)(=O)NCCOCCOCCNC(=O)NCCCCNC(=O)NCCOCCOCCNS(=O)(=O)c2ccc(O[C@H]3c4cc(Cl)cc(Cl)c4C[C@@H]3N3CCN(C(=O)N(C)C)CC3)c(C)c2)ccc1O[C@H]1c2cc(Cl)cc(Cl)c2C[C@@H]1N1CCN(C(=O)N(C)C)CC1", "A (NHE3 < 40%)"]
]}
